experiment: Plasma protein binding in human; assay type: ADME, cell-free; settings: read-out: PPB (converted)
Class yes (1): fraction unbound at least 0.02. Class no (0): fraction unbound below 0.02.

Below are worked cases with known answers.
> print(dat)
                                given.smiles  qualitative.label
 1  Cc1ccc([C@H]2C[C@@H](C(F)(F)F)n3ncc(C(=O)NCc4ccc(F)cc4)c3N2)o1             no (0)
 2  Cc1ccc([C@H]2C[C@@H](C(F)(F)F)n3ncc(C(=O)NCc4ccc(F)cn4)c3N2)nc1            yes (1)
 3  Cc1ccc([C@H]2C[C@@H](C(F)F)n3ncc(C(=O)NCc4ccc(F)cc4)c3N2)nc1            yes (1)
 4  O=C(NCc1ccc(F)cc1)c1cnn2c1N[C@@H](c1ccc(OC3COC3)cc1)C[C@H]2C(F)(F)F            yes (1)
 5  Cc1ccc([C@H]2C[C@@H](C(F)(F)F)n3ncc(C(=O)NCc4ccc(F)cc4)c3N2)cc1             no (0)
 6  Cc1ccc([C@H]2C[C@@H](C(F)(F)F)n3ncc(C(=O)NCc4ccc(F)cn4)c3N2)cc1             no (0)
 7  COc1ccc(CNC(=O)c2cnn3c2N[C@@H](c2ccc(C)cc2)C[C@H]3C(F)(F)F)cn1             no (0)
 8  COCCOc1ccc([C@H]2C[C@@H](C(F)(F)F)n3ncc(C(=O)NCc4ccc(F)cn4)c3N2)cc1            yes (1)
 9  COCCOc1ccc([C@H]2C[C@@H](C(F)(F)F)n3ncc(C(=O)NCc4ccc(F)cc4)c3N2)cc1             no (0)
10  Cc1ccc([C@H]2C[C@@H](C(F)(F)F)n3ncc(C(=O)NCc4ccc(F)cc4)c3N2)nc1            yes (1)

-- ask // inclusive: fraction unbound at least 0.02? input: O=C(NCc1ccc(F)cc1)c1cnn2c1N[C@@H](c1ccc(N3CCOCC3)cc1)C[C@H]2C(F)(F)F
-- reply no (0)

====

assay: Plasma protein binding in mouse; format: ADME, cell-free; details: read-out: PPB (converted)
Consider the following compounds and their measured fraction unbound readings.
Answer with a number only.

> print(dat)
                               given.smiles  experimental.value
1  Cc1ccc([C@H]2C[C@@H](C(F)(F)F)n3ncc(C(=O)NCc4ccc(F)cc4)c3N2)nc1               0.042
2  O=C(NCc1ccc(F)cc1)c1cnn2c1N[C@@H](c1ccc(N3CCOCC3)cc1)C[C@H]2C(F)(F)F               0.016
3  O=C(NCc1ccc(F)cc1)c1cnn2c1N[C@@H](c1ccc(OC3COC3)cc1)C[C@H]2C(F)(F)F               0.024

Below: the item to evaluate.
-- ask // returns reported fraction unbound for input Cc1ccc([C@H]2C[C@@H](C(F)(F)F)n3ncc(C(=O)NCc4ccc(F)cn4)c3N2)nc1
-- reply 0.128

====

assay: Cmax in mouse; type: ADME, organism-based; conditions: in vivo
Readout Name: Cmax
Write the numeric value and append its unit.

-- ask // returns reported Cmax for input Cc1ccc([C@H]2C[C@@H](C(F)(F)F)n3ncc(C(=O)NCc4ccc(F)cc4)c3N2)cc1
-- reply 8.3 µM
